tested on: Escherichia coli; test: Inhibition of Escherichia coli FimH-mediated hemagglutinination of guinea pig red blood cells assessed as drug level required for > 90% inhibition of hemagglutinination
Here the recorded Activity is given for each entry.
Quick reminder: number only, in µM, skip the unit.

O=C(O)c1cccc(-c2ccc(O[C@H]3O[C@H](CO)[C@@H](O)[C@H](O)[C@@H]3O)cc2)c1 | 4

Recall and state the measured Activity for `OC[C@H]1O[C@H](Oc2ccc(-c3cccc(O)c3)cc2)[C@@H](O)[C@@H](O)[C@@H]1O` .
4

Write down Activity measured for item `OC[C@H]1O[C@H](Oc2ccccc2Cl)[C@@H](O)[C@@H](O)[C@@H]1O`
4
